Target: HTH-type quorum-sensing regulator RhlR (Pseudomonas aeruginosa (strain ATCC 15692 / PAO1 / 1C / PRS 101 / LMG12228))
Sequence (whole entry): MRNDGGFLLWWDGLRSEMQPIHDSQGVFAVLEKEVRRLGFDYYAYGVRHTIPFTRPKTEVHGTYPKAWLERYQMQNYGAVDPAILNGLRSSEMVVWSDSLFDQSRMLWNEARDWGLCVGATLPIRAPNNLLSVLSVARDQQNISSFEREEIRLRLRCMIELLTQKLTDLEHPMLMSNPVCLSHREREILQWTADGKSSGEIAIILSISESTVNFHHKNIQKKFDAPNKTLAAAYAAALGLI
Assay: Antagonist activity at Pseudomonas aeruginosa RhlR expressed in Escherichia coli DH5alpha assessed as relative protein activity at 100 uM incubated for 1.5 hrs in presence of N-butyryl-L-homoserine lactone by luminescence reporter gene assay relative to control
Parameters: scale not given: the % may be the effect or the level left

molecule	Activity / %
CCCCCC(=O)C#Cc1ccc(O)c(OC)c1	29
CCCCCC(O)/C=C/c1ccc(O)c(OC)c1 (stereo not given)	41
CCCC(O)CC(=O)CCc1ccc(O)cc1 (stereo not given)	64
CCC[C@H](O)C#Cc1ccc(F)c(F)c1	38
CCCCCC(O)/C=C\c1ccc(O)c(OC)c1 (stereo not given)	79

All values here come from ChEMBL document CHEMBL4619802.
